The reported numbers originate from PubChem BioAssay AID465.

Test: inhibitors of PMA/ionomycin-induced NF-kB reporter, primary screen, antigen receptor NF-kB inhibitor project, cell-based, HEK-293 luciferase reporter, luminescence (AID 465);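 also: 0% = stimulated DMSO wells and 100% = 10 µM reference inhibitor 5653914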
Conditions: HEK-293 NF-kB luciferase reporter, at 3 µM
The whole screen tested about 62,000 compounds, of which about 130 (0.21%) were called active.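 The calls were made as follows: active = inhibition above the mean of all tested compounds plus 3 SD (cut at about 40% in these data); inactive = the rest.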 For the sample, actives were picked, then their nearest neighbours and some compounds at random.
Parameter call: string, one of active, inactive

Solved cases (2 shown):
compound	assigned-label
CC1(C)NC(=O)N(CCOc2cccc(Oc3ccccc3)c2)C1=O	inactive
Cc1ccnc(N2CCN(C(=O)CSc3nc4ccccc4nc3N3CCCCC3)CC2)c1	inactive

Read the next record carefully.
Entry `Cc1cc(=O)oc(C)c1C(=O)NCc1ccc(F)cc1` : call = ? inactive

* * *

Field: inhibition. Provide a value for each of the compounds that follow.
Experiment: inhibitors of PMA/ionomycin-induced NF-kB reporter, primary screen, antigen receptor NF-kB inhibitor project, cell-based, HEK-293 luciferase reporter, luminescence (AID 465);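 also: 0% = stimulated DMSO wells and 100% = 10 µM reference inhibitor 5653914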
Settings: HEK-293 NF-kB luciferase reporter, at 3 µM, hits give high values
Screen size: about 62,000 compounds; about 130 (0.21%) were called active. The full list was thinned out, with actives kept by preference.
One number for each entry, in %.

Take a look at these entries with their results.
compound	inhibition, %
O=C(OCC(=O)N1CCCC1)c1ccco1	9.6
CCC1Oc2ccc(Cl)cc2N(CC(=O)O)C1=O (stereo not drawn)	10.2
O=P(O)(CN1CCCCC1)CN1CCCCC1	4.4
CCC(=O)Nc1cccc(NC(=O)CSc2nnc(-c3ccc(NS(C)(=O)=O)cc3)n2C)c1	1.5

I have 6 compounds here; please give me inhibition for each one.
1. O=C(O)c1cccc2c1C(=O)N(C1CCCCC1)C2
2. CCOC(=O)N1CCN(C(=O)CN(c2ccc(C)c(C)c2)S(=O)(=O)c2ccccc2)CC1
3. CCCCN(C)Cc1c(C)[nH]c2ccc(Cl)cc2c1=O
4. CCCCNc1nc2ccccc2nc1NS(=O)(=O)c1cccs1
5. O=C(Nc1cccc2c1CCCC2)C1CCN(C(=O)NC2CCCCC2)CC1
6. CC(=O)N1CCN(c2ccc(NCc3ccc(C(C)C)cc3)cc2)CC1

1: 8.4; 2: 10.2; 3: 9.1; 4: 3.3; 5: 16.4; 6: -0.9

I have 4 compounds here; please give me inhibition for each one.
1. CCCCOc1ccc(-c2ncc(C(=O)OCC)c(N)n2)cc1
2. CCOC(=O)N1CCN(C(=O)COc2ccc(Br)cc2)CC1
3. O=C(CN1C(=O)c2ccccc2S1(=O)=O)N1CCc2ccccc21
4. O=C(c1cccc(C(=O)N2CCc3ccccc32)n1)N1CCc2ccccc21

1. 5.2
2. 3.3
3. 59
4. 1.5

I have 7 compounds here; please give me inhibition for each one.
1. CNC(=O)CN1C(=O)c2ccccc2S1(=O)=O
2. Cc1cccc(NC(=O)C2CCCN2S(=O)(=O)c2ccc(F)cc2)c1C (stereo not drawn)
3. CCOc1ccc(OCC)c(NC(=O)C2CCN(S(=O)(=O)c3c(C)noc3C)CC2)c1
4. O=C(Nn1cnc2ccccc2c1=O)c1ccc(F)cc1Cl
5. COC(=O)c1ccc(NC(=O)CN(c2ccc(C)cc2)S(=O)(=O)c2c(C)n[nH]c2C)cc1
6. CCN(CC)CCNC(=O)Cn1cnc2sc(C)c(S(=O)(=O)N3CCOCC3)c2c1=O
7. CC(C)(C)OC(=O)c1c(N)n(CCCN2CCCC2=O)c2nc3ccccc3nc12

[16.9, 19.8, 15.5, -16.4, 21.2, 4.3, 11.9]

I have 2 compounds here; please give me inhibition for each one.
1. Cc1cc(=O)n2c3c(cccc13)CCC2
2. COC(=O)[C@H](C(C)C)n1c(C)c(C(C)=O)c(C(C)=O)c1C

7.5
-9.6

* * *

Test: inhibitors of PMA/ionomycin-induced NF-kB reporter, primary screen, antigen receptor NF-kB inhibitor project, cell-based, HEK-293 luciferase reporter, luminescence (AID 465);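 also: 0% = stimulated DMSO wells and 100% = 10 µM reference inhibitor 5653914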
Settings: HEK-293 NF-kB luciferase reporter, at 3 µM, hits give high values
About 130 (0.21%) of roughly 62,000 compounds were called active. The sample as a whole holds a higher share of actives than the screen did.
recorded-metric: inhibition (%)
Numbers only, in %.

Take a look at these entries with their results.
molecule	inhibition [%]
CCOC(=O)c1cccc(NC(=O)C2CCCN(S(=O)(=O)c3cnc[nH]3)C2)c1 (stereo not drawn)	11.6
O=C(Nc1c(C(=O)N2CCCCC2)cnn1-c1ccccc1)c1ccco1	-3.8
O=C(NCCCN1CCN(C2CCCCC2)CC1)Nc1ccccc1C(F)(F)F	7.8

I have 4 molecules here; please give me inhibition for each one.
1. CCOC(=O)CSc1nncc2ccc(OC)c(OC)c12
2. Cc1nnc(Sc2nc3c(c(=O)[nH]c(=O)n3C)n2Cc2ccccc2)s1
3. CCCn1cc(SCC(N)=O)c2ccccc21
4. COc1ccc2c(c1)CCc1c(C(=O)Nc3c(C)n(C)n(-c4ccccc4)c3=O)noc1-2

[2, -1.3, 2.8, 23.3]

* * *

Experiment: inhibitors of PMA/ionomycin-induced NF-kB reporter, primary screen, antigen receptor NF-kB inhibitor project, cell-based, HEK-293 luciferase reporter, luminescence (AID 465);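 also: 0% = stimulated DMSO wells and 100% = 10 µM reference inhibitor 5653914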
Conditions: HEK-293 NF-kB luciferase reporter, at 3 µM
Screen size: about 62,000 compounds; about 130 (0.21%) were called active.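 The calls were made as follows: active = inhibition above the mean of all tested compounds plus 3 SD (cut at about 40% in these data); inactive = the rest.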 What follows is part of a selection rich in actives, with near analogues and random picks from the rest.
Parameter call: string, one of 1.0 (active), 0.0 (inactive)

compound	assigned-label
CCCCN=C(N)/C(C(=O)OCC)=C(\O)c1ccc(OC)cc1	0.0
CC(C)C(=O)N1CCN(CCN=CC2=C(O)CC(c3ccco3)CC2=O)CC1 (stereo unspecified)	0.0
CNC(=O)c1nnn(-c2ccccc2)c1C(=O)NC	0.0

Entry `COc1ccccc1NC(=O)CN1CCN(S(=O)(=O)c2ccc(Br)cc2)CC1` : call = ? 0.0

Entry Cc1ccc(NC(=O)CN2CCC3(O)CCCCC3C2c2ccc3c(c2)OCO3)c(C)c1 (stereo unspecified) : call = ? 0.0

Entry `CC1(C)CC(=O)C2=C(C1)NCN(CCCN1CCOCC1)C2` : call = ? 0.0

Entry `Cc1ccc(-c2noc(CCC(N)=O)n2)cc1` : call = ? 0.0

Entry O=C(C(NS(=O)(=O)c1cccc2nsnc12)c1ccccc1)N1CCN(c2ccccn2)CC1 (stereo unspecified) : call = ? 0.0

* * *

Test: inhibitors of PMA/ionomycin-induced NF-kB reporter, primary screen, antigen receptor NF-kB inhibitor project, cell-based, HEK-293 luciferase reporter, luminescence (AID 465);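 also: 0% = stimulated DMSO wells and 100% = 10 µM reference inhibitor 5653914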
Conditions: HEK-293 NF-kB luciferase reporter, at 3 µM, hits give high values
Hit rate of the full screen: of about 62,000 compounds, about 130 (0.21%) were called active. Many of the other results were omitted from the sample, so actives are more common in it than they were.
recorded-metric: inhibition (%)
One number for each entry, in %.

compound	inhibition / %
Cc1ccccc1CSCC(=O)NC(=O)NC(C)(C)C	-1.2
C=CCC(NCCCO)c1cccc(OC)c1OC (stereo unspecified)	7.1
CC(C)CCn1c(CN(C)Cc2ccccc2)nc2c1c(=O)n(C)c(=O)n2C	10.4
CCOC(=O)N1CCN(S(=O)(=O)c2ccc(C(=O)Nc3ccc(F)cc3F)cc2)CC1	17.4
CCOC(=O)c1cnc(SCC(=O)NCc2ccco2)nc1N	-2

I have 2 compounds here; please give me inhibition for each one.
1. Cc1cc(C(=O)OCC(=O)NCc2ccco2)c(C)n1-c1ccccc1
2. COC(=O)c1ccc2c(=O)n(CC3CCCO3)c(=S)[nH]c2c1 (stereo unspecified)

1. 41.7
2. 12.2

* * *

Test: inhibitors of PMA/ionomycin-induced NF-kB reporter, primary screen, antigen receptor NF-kB inhibitor project, cell-based, HEK-293 luciferase reporter, luminescence (AID 465);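 also: 0% = stimulated DMSO wells and 100% = 10 µM reference inhibitor 5653914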
Details: HEK-293 NF-kB luciferase reporter, at 3 µM
Screen size: about 62,000 compounds; about 130 (0.21%) were called active.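 The calls were made as follows: active = inhibition above the mean of all tested compounds plus 3 SD (cut at about 40% in these data); inactive = the rest.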 Shown is part of a subset that was picked to be rich in actives.
Parameter call: string, one of active, inactive

Solved cases (8 shown):
compound	assigned-label
CCNC(=O)CCc1nc(-c2ccc(C(C)(C)C)cc2)no1	active
Cn1c(=O)c2c(nc(SCCNS(=O)(=O)c3ccccc3)n2C)n(C)c1=O	inactive
O=C(Nc1cnccn1)c1cccnc1	inactive
CCC1=C/C(=C\c2ccc3c(c2)OCO3)C(=O)S1	inactive
CCCOC(=O)Cc1c(O)c2ccccc2[nH]c1=O	inactive
CCOC(=O)N1CCC(NC(=O)Cn2cc3c(n2)CCCCC3)CC1	inactive
COCCCN1C(=O)C(=O)/C(=C(/O)c2ccc3c(c2)CC(C)O3)C1c1cccnc1 (stereo not drawn)	inactive
CCN(CC)CCCN1C(=O)C(=O)/C(=C(/O)c2c(C)nc3ccccn23)C1c1ccc(C)o1 (stereo not drawn)	inactive

Entry `O=C(O)CCC(=O)Nc1ccc(N2CCOCC2)cc1` : call = ? inactive
